Target: DYRK3 (human) (UniProt O43781)
Sequence (O43781 whole entry, looked up): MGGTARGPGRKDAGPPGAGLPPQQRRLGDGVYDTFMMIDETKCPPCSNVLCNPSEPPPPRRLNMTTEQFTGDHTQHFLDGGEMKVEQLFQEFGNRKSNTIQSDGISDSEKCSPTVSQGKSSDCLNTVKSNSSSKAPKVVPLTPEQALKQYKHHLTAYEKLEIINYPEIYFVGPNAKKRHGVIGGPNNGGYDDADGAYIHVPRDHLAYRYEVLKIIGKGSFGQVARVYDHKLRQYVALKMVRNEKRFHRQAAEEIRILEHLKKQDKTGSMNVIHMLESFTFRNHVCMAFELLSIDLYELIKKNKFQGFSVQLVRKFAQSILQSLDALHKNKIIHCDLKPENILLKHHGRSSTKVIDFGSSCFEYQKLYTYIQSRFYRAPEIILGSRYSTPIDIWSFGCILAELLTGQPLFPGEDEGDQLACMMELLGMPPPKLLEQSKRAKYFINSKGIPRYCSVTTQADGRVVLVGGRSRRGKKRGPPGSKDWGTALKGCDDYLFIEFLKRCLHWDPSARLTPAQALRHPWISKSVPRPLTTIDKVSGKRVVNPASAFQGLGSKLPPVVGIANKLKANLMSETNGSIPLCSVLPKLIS
Test: radiometric filter-binding kinase assay
Details: compound 1.0 µM
reported_endpoint: residual activity (%)

{"columns": ["compound", "endpoint_unit", "data_value"],
 "data": [
  ["O=C(O)c1ccc(-c2c[nH]c3ncc(-c4ccccc4)cc23)cc1C1CCCC1", "%", 57]
]}

I. NCC(=O)Nc1ccc(-n2nc(C(F)(F)F)cc2-c2ccc3c(ccc4ccccc43)c2)cc1
II. CNC(=O)C1[C@H]2O[C@@](C)([C@@H]1N)n1c3ccccc3c3c4c(c5c6ccccc6n2c5c31)C(=O)NC4 (some centres not stated)
III. O=c1c(O)c(-c2ccc(O)c(O)c2)oc2cc(O)c(O)c(O)c12
Query string: # rank by residual activity, ascending (min first) Your task in answering is to list the labels in the requested order.
Result string: II, III, I

1. C=CC(=O)N1CCC[C@@H](n2nc(-c3ccc(Oc4ccccc4)cc3)c3c(N)ncnc32)C1
2. Cc1cccc(Nc2nn(C)c3ncnc(N)c23)c1
Query string: Hey, between 1 and 2 which has a smaller measured residual activity? Output the label that corresponds to your choice.
Result string: 1

* * *

Target: HIPK2 (human)
Assay: radiometric filter-binding kinase assay
Conditions: compound 0.01 µM
reported_endpoint: residual activity (%)

Below, 3 compounds whose answers are already recorded.
{"columns": ["compound", "data_value"],
 "data": [
  ["O=C(Nc1nc2cc(C(F)(F)F)cc(NC3CC3)n2n1)c1cccnc1", 100],
  ["COc1cc(O)c2c(c1)[C@H]1OC1C[C@H](O)[C@H](O)C(=O)/C=C\\C[C@H](C)OC2=O (stereo not given in full)", 96],
  ["CNC(=O)C1[C@H]2O[C@@](C)([C@@H]1N)n1c3ccccc3c3c4c(c5c6ccccc6n2c5c31)C(=O)NC4 (stereo not given in full)", 85]
]}

1. CNc1nc(-c2ccc3c(N)n[nH]c3c2)cc(N2C[C@@H](C(=O)NC3CCCCC3)CC[C@H]2C)n1
2. C/C(=C1/C(=O)Nc2ccc(NC(N)=O)cc21)c1ccc[nH]1
Query string: Pick one, 1 or 2 : lowest reported residual activity. Lab note: record the label of whichever item you select.
Result string: 2
(2: 82%, 1: 119%)

* * *

Molecular target: MAPK12 (human)
Test: radiometric filter-binding kinase assay
Details: compound 10.0 µM
reported_endpoint: residual activity (%)

{"columns": ["compound", "reported_endpoint", "endpoint_unit", "data_value"],
 "data": [
  ["O=C(NOC[C@H](O)CO)c1ccc(F)c(F)c1Nc1ccc(I)cc1Cl", "residual activity", "%", 98],
  ["NC(=O)c1c(NC(=O)C2CC2)sc2c1CCCC2", "residual activity", "%", 94]
]}

P. CCn1c(-c2nonc2N)nc2cncc(CNC3CCNCC3)c21
Q. COc1ccc2c(c1)c1c3c(c4c5ccccc5n(C)c4c1n2CC(O)CN(C)C)C(=O)NC3=O (stereo not given)
Query string: Out of P and Q , name the one with the higher residual activity. Answer with the label corresponding to your selection.
Result string: P
(P: 109%, Q: 74%)

P. N#Cc1c(C2CCNCC2)cc(-c2c(O)cccc2OCC2CC2)nc1N
Q. Oc1ccc2ccccc2c1SSc1c(O)ccc2ccccc12
Query string: Of P and Q , which carries the smaller reported residual activity figure? Identify your pick by its label.
Result string: P
(P: 72%, Q: 103%)

Hey, just so you know, these numbers are from the kinase profiling compilation of Christmann-Franck et al. (2016).
